system: Jurkat; assay: cytotoxicity relative to DMSO, 18 h (ratio); higher = less cell death (drugs called cytotoxic fall below 1); settings: 10000 nM
cytotoxicity values, listed per item

Molecule: CC(C)C(C(=O)Nc1ccc(C(=O)NO)cc1)c1ccccc1 (centres undefined)
cytotoxicity: 0.811
//
Molecule: CC(=O)OC1C(=O)C2(C)C(O)CC3OCC3(OC(C)=O)C2C(OC(=O)c2ccccc2)C2(O)CC(OC(=O)C(O)C(NC(=O)c3ccccc3)c3ccccc3)C(C)=C1C2(C)C (centres undefined)
cytotoxicity: 0.797
//
Molecule: CN(Cc1cnc2nc(N)nc(N)c2n1)c1ccc(C(=O)NC(CCC(=O)O)C(=O)O)cc1 (centres undefined) [Methotrexate]
cytotoxicity: 0.585
//
Molecule: COc1ccc(S(=O)(=O)N(C(C)=O)c2ccccc2C=Cc2cc[n+]([O-])cc2)cc1
cytotoxicity: 0.602

* * *

test system: Jurkat; assay: cytotoxicity relative to DMSO, 18 h (ratio); higher = less cell death (drugs called cytotoxic fall below 1); conditions: 10000 nM
// label = satisfied if cytotoxicity is not less than 0.9, otherwise not satisfied

Molecule: C=CCNC1=C2CC(C)CC(OC)C(O)C(C)C=C(C)C(OC(N)=O)C(OC)C=CC=C(C)C(=O)NC(=CC1=O)C2=O (stereo unspecified)
Cat: not satisfied
//
Molecule: O=C(O)c1ccc(Nc2ncc3c(n2)-c2ccc(Cl)cc2C(c2c(F)cccc2F)=NC3)cc1
Cat: not satisfied
//
Molecule: CCNC(=O)Nc1ccc(-c2nc3c(c(N4CCOCC4C)n2)CCN(C2COC2)C3)cc1 (stereo unspecified)
Cat: not satisfied
//
Molecule: CC(=O)N1CCC(Nc2cc(C(=O)NCC(O)CN3CCc4ccccc4C3)ncn2)CC1 (stereo unspecified)
Cat: satisfied
//
Molecule: O=C(O)C1(Cc2cccc(Nc3nccs3)n2)CCC(Oc2cccc(Cl)c2F)CC1 (stereo unspecified)
Cat: satisfied
//
Molecule: COc1cc(OC)c(C=CS(=O)(=O)Cc2ccc(OC)c(NCC(=O)O)c2)c(OC)c1
Cat: not satisfied
//
Molecule: COCCN1CCN(Cc2ccc(-c3n[nH]c4c3C(=O)c3c(NC(=O)NN5CCOCC5)cccc3-4)cc2)CC1.Cl.Cl
Cat: not satisfied
//
Molecule: COC1CC2CCC(C)C(O)(O2)C(=O)C(=O)N2CCCCC2C(=O)OC(C(C)CC2CCC(O)C(OC)C2)CC(=O)C(C)C=C(C)C(O)C(OC)C(=O)C(C)CC(C)C=CC=CC=C1C (stereo unspecified)
Cat: not satisfied
//
Molecule: O=C1CCC(N2C(=O)c3ccccc3C2=O)C(=O)N1 (stereo unspecified) [Thalidomide]
Cat: not satisfied
//
Molecule: Cn1c(=O)n(-c2ccc(C(C)(C)C#N)cc2)c2c3cc(-c4cnc5ccccc5c4)ccc3ncc21
Cat: not satisfied
//
Molecule: Cc1ncc(-c2ccnc(Nc3ccc(S(C)(=O)=O)cc3)n2)n1C(C)C
Cat: satisfied
//
Molecule: COc1cccc2c1c(O)c(C(=O)N(C)c1ccc(C(F)(F)F)cc1)c(=O)n2C
Cat: satisfied
//
Molecule: N.N.[Cl][Pt][Cl] [Cisplatin]
Cat: satisfied

* * *

test system: Jurkat; assay: cytotoxicity relative to DMSO, 18 h (ratio); higher = less cell death (drugs called cytotoxic fall below 1); conditions: 10000 nM
Class field: derived from cytotoxicity; ranges lower band (below 0.9), central band (0.9 to below 1), upper band (1 or more)

Compound: O=C(CCCCCCNC(=O)c1cnc(N(c2ccccc2)c2ccccc2Cl)nc1)NO [Citarinostat]
Cat: lower band
//
Compound: O=C(O)c1ccc(CN2CCC(CNC3CC3c3ccccc3)CC2)cc1 (configuration not stated)
Cat: upper band
//
Compound: COc1ccc(-c2cc3c(C)nc(N)nc3n(C3CCC(OCCO)CC3)c2=O)cn1 (configuration not stated)
Cat: lower band
//
Compound: CC12C=CC(=O)C=C1CCC1C2C(=O)CC2(C)C1CCC2(O)C(=O)CO (configuration not stated) [Prednisone]
Cat: upper band
//
Compound: CN1CCC(c2c(O)cc(O)c3c(=O)cc(-c4ccccc4Cl)oc23)C1CO (configuration not stated) [Riviciclib]
Cat: upper band
//
Compound: NC1CCC(NC2CC2c2ccccc2)CC1 (configuration not stated) [Iadademstat]
Cat: upper band
//
Compound: CC(C)CC(=O)Nc1n[nH]c2c1CN(C(=O)C1CCN(C)CC1)C2(C)C
Cat: lower band
//
Compound: Cn1ncnc1C1c2n[nH]c(=O)c3cc(F)cc(c23)NC1c1ccc(F)cc1 (configuration not stated) [Talazoparib]
Cat: lower band
//
Compound: CN(C)CC(=O)Nc1ccc2[nH]c(=O)c3ccccc3c2c1 [PJ34]
Cat: upper band
//
Compound: Cn1cnc2c(F)c(Nc3ccc(Br)cc3Cl)c(C(=O)NOCCO)cc21 [Selumetinib]
Cat: central band
//
Compound: NC(=O)c1cccc2cn(-c3ccc(C4CCCNC4)cc3)nc12 (configuration not stated) [Niraparib]
Cat: central band
